B1: TPR t1 (parent)
chain: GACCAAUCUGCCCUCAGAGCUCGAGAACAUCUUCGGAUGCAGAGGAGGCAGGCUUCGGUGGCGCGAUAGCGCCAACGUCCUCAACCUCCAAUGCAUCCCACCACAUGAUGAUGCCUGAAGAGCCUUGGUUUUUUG

# Variants of: B1
# protocol-description: polymerase ribozyme fitness, log enrichment relative to wild type (log ratio); higher = more active; in vitro selection for triplet polymerase activity
The class of a record is decided solely by its measured polymerase ribozyme fitness (log ratio); consult low (below -3), mid (-3 to below -2), high (-2 or more)

                variant  label
0  A37U A74C C88G G110A    low
1      C64U C124U U130G   high
2   C15A A43U C49U A91U    low
3             A74U C80U   high
4            C22G U112G    mid
5       U87C C88A U106G    mid
6             C4U U129A    mid
7             C72A C73U   high
8   C11U G39U C79U G93U    mid
9             C34A C79G    low

Consider the record given below.
Req: Assign a bin to G63C G110U C123U G128C
Resp: low
